Literature-derived IC50 for Receptor-interacting serine/threonine-protein kinase 2 (Homo sapiens, UniProt O43353) follows.
Answers are plain numbers, in nM.

Answered cases to consult:
{"compound": "Cc1n[nH]c(Nc2ccnc3cc(OCC(F)F)c(S(=O)(=O)C(C)(C)C)cc23)c1C", "measured": 5.01}
{"compound": "Cc1ccc(C(=O)NC2CC2)cc1-c1cnn(-c2cncc(NC3CCCCC3)c2)c1", "measured": 3.3}
{"compound": "Cc1ccc(C(=O)NC2CC2)cc1-c1cnn(-c2cncc(NCCOC(C)(C)C)c2)c1", "measured": 9.7}
{"compound": "Cc1ccc(C(=O)NC2CC2)cc1-c1cnn(-c2cncc(NC(=O)C3CC3)c2)c1", "measured": 2.9}

Okay, here is my list. What is IC50 for each of these?
1. Cc1cc(F)c(C(=O)NC2CC2)cc1-c1cnn(-c2cncc(C3CC3)c2)c1
2. Cc1ccc(C(=O)NC2CC2)cc1-c1cnn(-c2cncc(C(=O)N(C)C)c2)c1
3. Cc1ccc(C(=O)NC2CC2)cc1-c1cnn(-c2cncc(NC3CCN(CC4C5COCC54)CC3)c2)c1 (stereo not shown)

1: 1; 2: 390; 3: 1

Give one value of IC50 per listed compound.
1. Nc1c(-c2ccc(F)cc2)c(-c2ccncc2)nn1-c1c(Cl)cc(Cl)cc1Cl
2. Cc1ccc(C(=O)NC2CC2)cc1-c1cnn(-c2cncc(OC(C)C)c2)c1
3. COCC(=O)Nc1cncc(-n2cc(-c3cc(C(=O)NC4CC4)ccc3C)cn2)c1

1. 41
2. 5.4
3. 7.8

Working through the 3 compounds below one at a time, give IC50 for each.
1. Cc1ccc(C(=O)NC2CC2)cc1-c1cn(-c2cccnc2)cn1
2. Cc1ccc(C(=O)NC2CC2)cc1-c1cnn(-c2cncc(NC(=O)C(C)(C)C)c2)c1
3. Cc1ccc(C(=O)NC2CC2)cc1-c1cnn(-c2cncc(NC3CCN(C4CCOC(C)C4)CC3)c2)c1 (stereo not shown)

1. 39
2. 13
3. 1.2

For each entry beneath this line, provide reported IC50.
1. Cc1cc(F)c(C(=O)NC2CC2)cc1-c1cnn(-c2cncc(N3CCC(N(C)C)CC3)c2)c1
2. CC(=O)N1CCC(N2CCC(Nc3cncc(-n4cc(-c5cc(C(=O)NC6CC6)ccc5C)cn4)c3)CC2)CC1
3. CNc1cncc(-n2cc(-c3cc(C(=O)NC4CC4)ccc3C)cn2)c1

1.4
1.2
2.6

Provide reported IC50 for each item, in the same order as listed.
1. Cc1ccc(C(=O)NC2CC2)cc1-c1cnn(-c2cncc(NC(=O)C3CCC3)c2)c1
2. Cc1n[nH]c(Nc2ccnc3cc(OCC(C)O)c(S(=O)(=O)C(C)(C)C)cc23)c1C (racemic)

[2.7, 3.98]

Read the entry Cc1ccc(C(=O)NC2CC2)cc1-c1cnn(-c2cncc(NC3CCN(C4CCOC4)CC3)c2)c1 (stereo not shown) and write its reported IC50. 0.94

----------
Header: IC50 / Receptor-interacting serine/threonine-protein kinase 2 (Homo sapiens) / multiple publications

Below, each entry is followed by its recorded IC50 result.
{"compound": "CCN1CCC[C@H](c2cc3c(Nc4ccc5scnc5c4F)ccnc3s2)[C@H]1C", "IC50": "≤ 10 nM"}
{"compound": "Cc1ccc(C(=O)NC2CC2)cc1-c1cnn(-c2cncc(OCC3CCOCC3)c2)c1", "IC50": "8.1 nM"}
{"compound": "CC1NCCCC1c1cc2c(Nc3ccc4scnc4c3)ccnc2s1 (stereo not drawn)", "IC50": "≤ 10 nM"}
{"compound": "C[C@@H]1[C@H](c2cc3c(Nc4ccc5scnc5c4)ccnc3s2)CCCN1C", "IC50": "≤ 10 nM"}
{"compound": "CC1C(c2cc3c(Nc4ccc5scnc5c4)ccnc3s2)CCCN1CCO (stereo not drawn)", "IC50": "≤ 10 nM"}

Each of the following entries comes with a recorded value; kindly state IC50 for each.
1. Cc1[nH]nc(Nc2ccnc3cc(OCC(F)(F)F)c(S(=O)(=O)C(C)(C)C)cc23)c1C
2. Cc1ccc(C(=O)NC2CC2)cc1-c1cnn(-c2cncc(S(C)(=O)=O)c2)c1
3. O=C(NC1CC1)c1cc(-c2cnn(-c3cccnc3)c2)c(Cl)cc1F
4. Cc1ccc(C(=O)NC2CC2)cc1-c1cnn(-c2cncc(OC3CCOC3)c2)c1 (stereo not drawn)
5. CC1C(c2cc3c(Nc4ccc5scnc5c4)ccnc3s2)CCCN1C1COC1 (stereo not drawn)
6. CC1C(c2cc3c(Nc4ccc5scnc5c4)c(F)cnc3s2)CCCN1C (stereo not drawn)
7. c1cc(Nc2ccc3scnc3c2)c2cc(C3CCNC34CCOC4)sc2n1 (stereo not drawn)

["5.01 nM", "190 nM", "14 nM", "4.7 nM", "10 to 20 nM", "≤ 10 nM", "10 to 20 nM"]

Below is a list of compounds. For each, state its recorded IC50.
1. CCN1CC=C(c2cc3c(Nc4ccc5scnc5c4)ccnc3s2)C12CCOCC2
2. Cc1ccc(C(=O)NC2CC2)cc1-c1cnn(-c2cncc(NC3CCN(C(=O)OC(C)(C)C)CC3)c2)c1
3. Cn1cnc2ccc(Oc3ccc(F)c(NC(=O)c4ccn(-c5ccc(F)cc5)n4)c3)cc2c1=O
4. CN1CCC(c2cc3c(Nc4cc5ncsc5cc4F)ccnc3s2)C12CCOC2 (stereo not drawn)
5. Cc1ccccc1-c1cc2nc(N[C@H]3CC[C@@H](O)CC3)ncc2[nH]1
6. Cc1ccc(C(=O)NC2CC2)cc1-c1cnn(-c2cncc(C3(C#N)CC3)c2)c1

≤ 10 nM
15 nM
≥ 10000 nM
≥ 50 nM
> 500 nM
11 nM
